- target under test: T1, murine IL-11 (mouse, UniProt P47873 22-199)
- T1 sequence: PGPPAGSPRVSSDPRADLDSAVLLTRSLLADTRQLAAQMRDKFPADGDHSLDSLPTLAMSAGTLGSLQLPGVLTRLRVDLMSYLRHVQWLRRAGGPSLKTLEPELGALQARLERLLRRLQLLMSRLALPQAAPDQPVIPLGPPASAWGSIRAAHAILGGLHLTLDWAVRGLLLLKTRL
- protocol details: cell-based or functional assay
attribute measured: RGA Efficacy (%)
The answer is to be given in %; state only the numeric part.

TPP-26328 (antibody, V domains shown) VH: EVQLLESGGGLVQPGGSLRLSCAASGFTFSSYGMHWVRQAPGKGLEWVSVISYDGSYKYYADSVKGRFTISRDNSKNTLYLQMNSLRAEDTAVYYCAATVPDYWGQGTLVTVSS VL: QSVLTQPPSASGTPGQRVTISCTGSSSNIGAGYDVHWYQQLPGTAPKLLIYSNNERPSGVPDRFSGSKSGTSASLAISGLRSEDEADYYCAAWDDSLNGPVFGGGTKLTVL :: 70.8

# input Given the binder TPP-26293 (antibody, V domains shown) VH: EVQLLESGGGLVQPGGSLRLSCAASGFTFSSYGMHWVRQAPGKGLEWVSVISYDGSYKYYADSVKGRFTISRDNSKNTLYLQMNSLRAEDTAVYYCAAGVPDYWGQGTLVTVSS VL: QSVLTQPPSASGTPGQRVTISCTGSSSNIGAWYDVHWYQQLPGTAPKLLIYSNNERPSGVPDRFSGSKSGTSASLAISGLRSEDEADYYCAAWDDSLNGPVFGGGTKLTVL , what is its reported RGA Efficacy (%)?
# output 96.9

# input Given the binder TPP-26329 (antibody, V domains shown) VH: EVQLLESGGGLVQPGGSLRLSCAASGFTFSSWGMHWVRQAPGKGLEWVSVISYDGSYKYYADSVKGRFTISRDNSKNTLYLQMNSLRAEDTAVYYCAAGVPDYWGQGTLVTVSS VL: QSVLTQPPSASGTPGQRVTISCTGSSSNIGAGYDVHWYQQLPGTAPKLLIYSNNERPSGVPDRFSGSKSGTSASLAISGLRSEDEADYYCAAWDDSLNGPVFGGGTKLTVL , what is its reported RGA Efficacy (%)?
# output 95.5
